- EXPERIMENTAL_DETAILS: Relative chemical stability of polymorph I over 4 weeks under storage (HPLC purity)
- Type: physicochemical
- RUN_CONDITIONS: solid storage, 40 ℃, dry; week 4
OBSERVABLE: HPLC purity at 672 h (%)

compound="O=C(O)COC[C@H](O)[C@H](O)/C=C/C=C/C#C/C=C/[C@H](O)COc1ccc(F)cc1 [다형체 I]" observable="HPLC purity at 672 h" unit_of_measure=% recorded_number=96.4

====

- EXPERIMENTAL_DETAILS: Relative chemical stability of polymorph I over 4 weeks under storage (HPLC purity)
- Format: physicochemical
- RUN_CONDITIONS: solid storage, 40 ℃/75%RH; week 2
OBSERVABLE: HPLC purity at 336 h (%)

compound="O=C(O)COC[C@H](O)[C@H](O)/C=C/C=C/C#C/C=C/[C@H](O)COc1ccc(F)cc1 [다형체 I]" recorded_number=95.9
